Assay Target: Histone deacetylase 8 (Homo sapiens, UniProt Q9BY41)
Sequence (Q9BY41 whole entry): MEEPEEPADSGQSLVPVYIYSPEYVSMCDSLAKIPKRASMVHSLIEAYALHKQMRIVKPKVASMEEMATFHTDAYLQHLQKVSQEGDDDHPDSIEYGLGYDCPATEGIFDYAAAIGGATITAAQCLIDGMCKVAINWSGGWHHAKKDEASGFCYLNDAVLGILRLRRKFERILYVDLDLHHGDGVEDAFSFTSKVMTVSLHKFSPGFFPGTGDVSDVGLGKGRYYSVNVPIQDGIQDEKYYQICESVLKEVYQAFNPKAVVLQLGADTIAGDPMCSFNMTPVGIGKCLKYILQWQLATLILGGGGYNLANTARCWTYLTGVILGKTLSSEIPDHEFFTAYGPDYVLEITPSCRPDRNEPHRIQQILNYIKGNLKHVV
Measured Metric: IC50
Quick note: number first, unit second.

Q: # assay system Histone deacetylase 8 (Homo sapiens, UniProt Q9BY41): give IC50 of `O=C(NO)c1cn(C2CCN(C(=O)Cc3ccc4ccccc4c3)CC2)nn1`
A: 1 µM

Q: # assay system Histone deacetylase 8 (Homo sapiens, UniProt Q9BY41): give IC50 of `O=C(CCCCCC(=O)N(Cc1ccc(Br)s1)c1ccc(OCCN2CCOCC2)cc1)NO`
A: 0.00114 µM

* * *

Assay Target: Protein deacetylase HDAC6 (Homo sapiens, UniProt Q9UBN7)
Sequence (Q9UBN7 whole entry): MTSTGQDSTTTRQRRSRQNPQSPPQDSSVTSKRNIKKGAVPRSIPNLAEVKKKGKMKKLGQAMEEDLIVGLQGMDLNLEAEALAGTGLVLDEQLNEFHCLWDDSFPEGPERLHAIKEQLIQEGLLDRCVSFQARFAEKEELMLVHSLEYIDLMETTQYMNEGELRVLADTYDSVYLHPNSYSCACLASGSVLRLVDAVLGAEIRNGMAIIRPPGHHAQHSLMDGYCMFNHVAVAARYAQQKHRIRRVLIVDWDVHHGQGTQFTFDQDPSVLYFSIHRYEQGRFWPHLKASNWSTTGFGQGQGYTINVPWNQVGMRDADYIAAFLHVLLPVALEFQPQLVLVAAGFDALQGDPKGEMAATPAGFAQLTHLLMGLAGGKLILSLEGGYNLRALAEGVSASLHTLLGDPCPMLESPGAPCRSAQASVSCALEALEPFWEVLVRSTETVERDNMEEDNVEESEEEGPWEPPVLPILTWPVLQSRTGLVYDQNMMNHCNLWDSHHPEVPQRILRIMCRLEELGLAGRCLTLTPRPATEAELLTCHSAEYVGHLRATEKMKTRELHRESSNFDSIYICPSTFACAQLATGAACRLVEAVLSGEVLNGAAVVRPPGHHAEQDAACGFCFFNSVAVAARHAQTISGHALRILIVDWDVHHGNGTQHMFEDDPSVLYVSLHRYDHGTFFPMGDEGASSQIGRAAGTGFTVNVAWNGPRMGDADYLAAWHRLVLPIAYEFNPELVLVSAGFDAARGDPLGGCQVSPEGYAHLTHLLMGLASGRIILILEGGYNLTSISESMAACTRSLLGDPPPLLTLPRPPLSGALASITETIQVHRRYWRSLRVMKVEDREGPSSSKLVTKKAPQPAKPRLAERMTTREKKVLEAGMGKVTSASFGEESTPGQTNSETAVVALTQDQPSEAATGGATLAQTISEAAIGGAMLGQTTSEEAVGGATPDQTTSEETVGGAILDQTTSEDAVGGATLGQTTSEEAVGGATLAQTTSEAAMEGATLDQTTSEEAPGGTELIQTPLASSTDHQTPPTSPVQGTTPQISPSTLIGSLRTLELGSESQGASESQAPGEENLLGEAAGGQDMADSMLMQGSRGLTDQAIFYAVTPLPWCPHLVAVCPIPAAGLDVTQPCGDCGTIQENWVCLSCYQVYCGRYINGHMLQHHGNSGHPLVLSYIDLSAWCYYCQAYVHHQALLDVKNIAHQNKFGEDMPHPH
Measured Metric: IC50
Quick note: number first, unit second.

O=C(CCCCCC(=O)N(Cc1ccc(Br)s1)c1ccc(OCCN2CCOCC2)cc1)NO	1.14 nM
Cc1[nH]c2ccccc2c1CCNS(=O)(=O)c1ccc(/C=C/C(=O)NO)cc1	5.13 nM
N#Cc1cccc(-c2cn(CCCCCCn3cccc(/C=C/C(=O)NO)c3=O)nn2)c1	49 nM
O=C(/C=C/c1ccc(S(=O)(=O)Nc2cc(F)cc(F)c2)cc1)NO	5.2 nM

Now look at this one.
Q: Give a short answer stating reported IC50 for `O=C(NO)c1cn(C2CCN(C(=O)Cc3ccc4ccccc4c3)CC2)nn1` .
A: 1000 nM
